The measurements presented in this section are drawn from PubChem BioAssay AID248.

Would you kindly list T/C for each of these compounds?
# Tested on: L1210 leukemia ip in BDF1 mice, survival T/C
# test-name: NCI In Vivo Anticancer Drug Screen. Data for tumor model L1210 Leukemia (intraperitoneal) in B6D2F1 (BDF1) mice
# measurement-conditions: endpoint: mean survival time; dose: 400.0 mg/kg/injection; schedule: Q04DX002 (ip); vehicle: Klucel (hydroxypropylcellulose) (HPC); higher = longer survival
Toxic doses and inconclusive results are not listed.

IN: Query (compound): NC(=O)N/N=C/C(=O)O ; field requested: T/C
OUT: 104 % of control

IN: Returns the measured T/C for the input compound. Input: CCCCSC(N)=O
OUT: 90 % of control

IN: What T/C value was documented for this compound, Cc1ccc(S(=O)(=O)OC(CO)C(O)C(O)C(CO)OS(=O)(=O)c2ccc(C)cc2)cc1 (stereo not drawn) (tested in a mixture with another compound) ?
OUT: 93 % of control

IN: Which T/C value belongs to CCN(CC)C(=S)SC(C)C(=O)OC (stereo not drawn) ?
OUT: 103 % of control

IN: # input compound: Nc1nnnn1-c1ccccc1 ; wanted: its T/C
OUT: 91 % of control

IN: I am curious: what T/C value has been reported for c1ccc2c(-c3c4ccccc4cc4ccccc34)c3ccccc3cc2c1 ?
OUT: 91 % of control

IN: I have this compound here, COc1c(-c2cc(C)nc(NC#N)n2)c(O)c(OC)c2occc12 , and I need its recorded T/C.
OUT: 98 % of control

IN: Entry under review: Cc1ccc(-n2cccc2)cc1 . Reported T/C?
OUT: 106 % of control

IN: Find the recorded T/C belonging to CC(=O)SCN1C(=O)C2C3CCC(O3)C2C1=O (stereo not drawn) and report it.
OUT: 105 % of control

IN: Which T/C value belongs to O=S(=O)(c1ccccc1)C(Br)c1ccccc1 (stereo not drawn) ?
OUT: 97 % of control

IN: Reported T/C, compound Cc1ccc(C2C(C(=O)O)C2c2ccccc2)cc1 (stereo not drawn) : ____
OUT: 92 % of control

IN: // lookup T/C for Cc1cc(F)ccc1OCC(=O)Oc1ccc([N+](=O)[O-])cc1
OUT: 111 % of control

IN: T/C for CCCCCCC1C/C(=C/N(C)C)C(=O)O1 (stereo not drawn) ?
OUT: 93 % of control

====

# Test system: L1210 leukemia ip in BDF1 mice, survival T/C
# test-name: NCI In Vivo Anticancer Drug Screen. Data for tumor model L1210 Leukemia (intraperitoneal) in B6D2F1 (BDF1) mice
# measurement-conditions: endpoint: mean survival time; dose: 100.0 mg/kg/injection; schedule: Q01DX009 (ip); vehicle: saline with Tween-80; higher = longer survival
Toxic doses and inconclusive results are not listed.
Can you tell me T/C for the items I'm about to list?

IN: Reported T/C, compound CCCCNC(=O)CC(C)C(=O)O (stereo not drawn) : ____
OUT: 100 % of control

IN: Item under review: Cc1nc(SCc2ccc(Cl)cc2)[nH]c(=O)c1CCO . Reported T/C?
OUT: 92 % of control

IN: What value of T/C has been recorded for this entry: Nc1ccc(S(=O)(=O)c2ccc(NCC(=O)O)cc2)cc1
OUT: 101 % of control

IN: May I ask what T/C has been recorded for C[n+]1ccccc1CCC(=O)Nc1ccccc1 ?
OUT: 87 % of control

IN: So what does the record say about T/C for NNC(=O)CCCCCO ?
OUT: 102 % of control

IN: State the recorded T/C for this entry: C=CCN(CC=C)C(=O)Nc1ccc(Cl)c(C(F)(F)F)c1
OUT: 97 % of control

IN: Which measured T/C value corresponds to N#C/C(=C\c1cc(Cl)cc(Cl)c1O)C(/C(C#N)=C/c1cc(Cl)cc(Cl)c1O)c1ccc2c(c1)OCO2 (stereo not drawn) ?
OUT: 97 % of control

IN: // lookup T/C for CNS(=O)(=O)c1ccc(NC(=O)C(Cl)Cl)cc1
OUT: 95 % of control

IN: State the recorded T/C for this entry: O=S(=O)(F)c1c(Cl)cccc1CBr
OUT: 86 % of control

IN: Given the compound Cc1ccc(NC(N)=S)cc1C , what is its reported T/C?
OUT: 86 % of control

IN: Sample CSC(N)=Nc1ccc(C(=O)O)cc1 — what was its T/C?
OUT: 105 % of control

IN: Looking for the measured T/C of BrCC1CCCO1 (stereo not drawn) , can you help?
OUT: 89 % of control

IN: Quick one: T/C for Nc1ccc(Cl)cc1N ?
OUT: 104 % of control

IN: Dear colleague, I am looking for the recorded T/C of the following compound: Cc1cccc(C)c1NC(=S)NNC(=O)c1ccncc1
OUT: 97 % of control

IN: // lookup T/C for O=CNc1ccc(O)cc1
OUT: 104 % of control

IN: Query (compound): COc1cc(/C=N/N2C(=O)CSC2=S)ccc1OCc1ccccc1 ; field requested: T/C
OUT: 89 % of control

IN: What value of T/C has been reported for the following compound? COc1cc(-c2ccc(NC(=O)CC(C)=O)c(OC)c2)ccc1NC(=O)CC(C)=O
OUT: 94 % of control

IN: Data request, read-out T/C, for O=C(CNC(=O)Nc1cccc(Cl)c1Cl)N/N=C/c1ccccc1O
OUT: 101 % of control

IN: Fill blank: measured T/C of the compound CC1CN(C(=N)C#N)C(C)CN1C(=N)C#N (stereo not drawn) is ____.
OUT: 92 % of control

IN: Please give the measured T/C for this compound: COc1ccc(C(=O)CSc2cc[o+]cc2)cc1
OUT: 94 % of control

IN: What value of measured T/C is listed for CCCC1(CCC)OOC(CCC)(CCC)OO1 ?
OUT: 96 % of control

IN: # query: T/C of entry Cc1ccccc1NC(=O)C1CCC(C)(C(=O)O)C1(C)C (stereo not drawn)
OUT: 102 % of control

IN: Item O=C(O)Cc1cc2c(cc1I)OCO2 has what recorded T/C?
OUT: 98 % of control

IN: // returns reported T/C for input NC(=O)OCC(N)C(=O)O (stereo not drawn)
OUT: 89 % of control

IN: What does the record list as T/C for O=C1/C(=C2\CCCc3ccc(Cl)cc32)CCc2ccc(Cl)cc21 ?
OUT: 100 % of control

IN: Need T/C of CCCN(CCC)CC(C)(C)CO , thanks.
OUT: 101 % of control

IN: Recorded T/C of O=C(CC1(O)C(=O)Nc2ccccc21)C12CC3CC(CC(C3)C1)C2 (stereo not drawn) , please.
OUT: 101 % of control

IN: I am curious: what T/C value has been reported for CCOc1ccc(/C=N/NC(C)=O)cc1OC ?
OUT: 101 % of control
